Procedure details: CREB reporter modulators without forskolin, primary screen, cell-based, PC12, CRE-LacZ reporter, unstimulated (AID 1145)
Experimental parameters: no forskolin, luminescence, 4.5 h, higher = more signal, called active from +8 up or from −8 down
Known z-score of a selection of compounds

[
  {
    "Compound": "CC(=O)OC[C@H]1O[C@H](CCON=C2[C@H]3CCn4c(=O)n(-c5ccccc5)c(=O)n4[C@H]3[C@H](O)[C@@H]3O[C@H]23)C=C[C@@H]1OC(C)=O",
    "z-score": -0.152
  },
  {
    "Compound": "O=c1n(Cc2cc3c(cc2Cl)OCO3)c(=O)n2n1CC[C@@H]1C(=NOCc3ccccc3)[C@H]3O[C@H]3[C@@H](O)[C@@H]12",
    "z-score": 0.16
  },
  {
    "Compound": "CCN1C(=O)[C@H]2[C@H]3[C@H](O)[C@H](O)CC(=O)[C@@H]3CC[C@H]2C1=O",
    "z-score": -0.293
  },
  {
    "Compound": "CO[C@@H]1COC(=O)[C@@H]2CCCN2C(=O)[C@@H](C)COC(=O)CC=C[C@H]1C",
    "z-score": 1.03
  },
  {
    "Compound": "C#CCCCON=C1[C@H]2CCn3c(=O)n(C)c(=O)n3[C@H]2[C@H](O)[C@@H]2O[C@H]12",
    "z-score": 0.523
  },
  {
    "Compound": "C[C@@H]1NC(=O)[C@@H](C)COC(=O)[C@H](C)NC(=O)[C@@H](C)COC1=O",
    "z-score": 0.427
  },
  {
    "Compound": "COC(=O)[C@H](C)NC(=O)CCC1CC(OC(=O)NCc2ccc3c(c2)OCO3)CC2(CCCC(COC(=O)NCCc3ccccc3OC)O2)O1 (stereo not given in full)",
    "z-score": 0.0167
  },
  {
    "Compound": "CCOC(=O)CCN1C(=O)[C@H]2[C@H]3[C@H](O)[C@H](O)CC(=NOCc4ccccc4)[C@H]3CC[C@H]2C1=O",
    "z-score": -0.295
  },
  {
    "Compound": "CCOC(=O)[C@H](CC(C)C)NC(=O)CCC1CC(OC(=O)NCc2ccc3c(c2)OCO3)CC2(CCCC(COC(=O)NCCCN3CCCC3=O)O2)O1 (stereo not given in full)",
    "z-score": 0.0167
  },
  {
    "Compound": "CCCNC(=O)OC[C@H]1O[C@H](CCON=C(C)CCC(=O)OC[C@H]2O[C@H](c3ccccc3)C=C[C@@H]2Oc2ccc(OC)cc2)C=C[C@@H]1Oc1ccc(OC)cc1",
    "z-score": -0.478
  },
  {
    "Compound": "CC(CCN1CCCCc2nc(C)c(C)cc21)=NO[C@@H](C)c1cn([C@H](CO)Cc2ccccc2)nn1",
    "z-score": 1.62
  },
  {
    "Compound": "CCOC(=O)[C@H](Cc1ccccc1)NC(=O)CCC1CC(OC(=O)NCCc2ccc(F)cc2)CC2(CCCC(COC(=O)NCc3ccccc3)O2)O1 (stereo not given in full)",
    "z-score": 0.824
  },
  {
    "Compound": "COC(=O)C1=C(C)N(Cc2ccccc2)[C@]23O[C@](C(=O)OC)(C(=O)N2[C@@H]1c1ccccc1)C(C(=O)OC)=C3C(=O)OC",
    "z-score": 1.92
  },
  {
    "Compound": "CC(C)(C)N1C(=O)[C@H]2[C@H]3[C@H](O)[C@H](O)CC(=O)[C@H]3CC[C@H]2C1=O",
    "z-score": 0.62
  },
  {
    "Compound": "CCCNC(=O)OC[C@H]1O[C@H](CCON=C(C)CCN2CCCc3nc(C)c(C)cc32)C=C[C@@H]1Oc1ccc(OC)cc1",
    "z-score": 2.72
  }
]
